Tested on: UO-31
Assay: NCI tumour cell line growth inhibition, 48 h
Activity calls are given as the source filed them. Rule as the data show it: active = GI50 up to about 1.1 µM and inactive = higher.
METRIC: GI50

| MOLECULE | TARGET OR TEST SYSTEM | DATA VALUE |
| --- | --- | --- |
| Cc1ccc(S(=O)(=O)N/N=C2/C3C(CC2(C)C)C2(C)CCCC3(C)C2O)cc1 (stereo not drawn) | UO-31 | 26.2 µM (inactive) |
| O=c1[nH]cnc2c(COCCCO)c[nH]c12 | UO-31 | > 100 µM (inactive) |
| O=C1C=CC(=O)c2c1cc1ccccc1c2O | UO-31 | 3.15 µM (inactive) |
| Cc1c2c(cc3c1[nH]c1ccccc13)C(c1ccc(Cl)cc1)=NCC2 | UO-31 | 0.644 µM (active) |
| O=C1NC(c2cccc3ccccc23)Nc2ccccc21 (stereo not drawn) | UO-31 | 1.05 µM (active) |
| N/C(=N\O)N/N=C/c1cc2c(cc1Cl)OCO2 | UO-31 | 21.4 µM (inactive) |
| O=C(O)C12C3CCC(C3)C1(C(=O)O)C1CCC2C1 (stereo not drawn) | UO-31 | > 100 µM (inactive) |
| COc1cc([C@@H]2c3cc4c(cc3[C@@H](Nc3ccc(NC(=O)c5cc(NC(=O)c6cc([N+](=O)[O-])cn6C)cn5C)cc3)[C@H]3COC(=O)[C@H]23)OCO4)cc(OC)c1O | UO-31 | 5.22 µM (inactive) |
| COc1ccc(-n2c(C)nc3ccc(NC4OC(COC(C)=O)C(OC(C)=O)C(OC(C)=O)C4OC(C)=O)cc3c2=O)cc1 (stereo not drawn) | UO-31 | > 100 µM (inactive) |
| CCOC(=O)CC[C@H](NC(=O)[C@H](N)Cc1ccc(N(CCCl)CCCl)cc1)C(=O)OCC | UO-31 | 14.1 µM (inactive) |
| OC1(CCc2ccccc2)COC(C(F)(F)F)(C(F)(F)F)C1 (stereo not drawn) | UO-31 | > 100 µM (inactive) |
| Cn1c(=O)c2[nH]c(/N=N/N3CCN(CCO)CC3)nc2n(C)c1=O | UO-31 | > 100 µM (inactive) |
| COc1ccc2c(c1)OC[C@@H]1c3cc(O)c(OCc4ccccc4)cc3O[C@H]21 | UO-31 | 20.1 µM (inactive) |

====

Test system: DLD-1
Assay: NCI tumour cell line growth inhibition, 48 h
Calls of active or inactive are those of the source. Cut-off read from the data, not from the text of the source: active = GI50 up to about 1.1 µM and inactive = higher.
Classes used: active, inactive

| SMILES ENTRY | CLASS ASSIGNMENT |
| --- | --- |
| COc1ccc(/C=C/C(=O)c2sc(N)nc2C)cc1 | inactive |
| CCOC(=O)/C(C#N)=C1/Sc2c(ncn(/N=C/c3ccc(OC)cc3)c2=O)N1c1ccccc1 | inactive |
| CCCOc1ccc(/C=C/c2cc(OC)c(OC)c(OC)c2)cc1 | active |
| O=C1C=CC(=O)c2c1cc1ccccc1c2O | inactive |
| CCN(CC)CCn1nc2c3c(c(NCCN)ccc31)Sc1cc(O)ccc1-2 | inactive |
| O=C1c2ccccc2C(=O)c2nc3ccc(Cl)cc3cc21 | inactive |

====

System: 786-0
Test: NCI tumour cell line growth inhibition, 48 h
Activity calls are given as the source filed them. Cut-off read from the data, not from the text of the source: active = GI50 up to about 1.1 µM and inactive = higher.

| COMPOUND | GI50 |
| --- | --- |
| CN(C)CC(CO)(CN(C)C)CN(C)C | > 100 µM (inactive) |
| COc1nc(C(Cl)(Cl)Cl)c(Cl)c(OC)c1Cl | 6.59 µM (inactive) |
| COC(=O)C1=C(C(=O)OC)SC(=C2S[C@@H]3[C@@H]4C[C@H]([C@@H]3S2)[C@H]2C(=O)OC(=O)[C@@H]42)S1 | > 100 µM (inactive) |
| COc1cc(OC)c2c(C)cc(=O)oc2c1 | 52.6 µM (inactive) |
| CC(=O)c1ccc2c(c1)CC1(C2)Cc2cc3c(cc2C1=O)CCC3 (configuration not stated) | 19.3 µM (inactive) |
| Clc1ccc(/N=C/c2cc3cc(Br)ccc3nc2Cl)cc1 | > 50 µM (inactive) |
| NC(=O)N/N=C(\CC1OC(=O)c2ccccc21)c1ccco1 (configuration not stated) | 92.9 µM (inactive) |
